study-target: recombinant biotinylated KRAS protein containing G12C/C51S/C80L/C118S mutations (Biotinylated KRAS G12C protein) (Homo sapiens (Human), UniProt P01116, C118S/C51S/C80L/G12C)
Sequence (P01116 other isoform, or with tags, fused parts or gaps, stated change not applied): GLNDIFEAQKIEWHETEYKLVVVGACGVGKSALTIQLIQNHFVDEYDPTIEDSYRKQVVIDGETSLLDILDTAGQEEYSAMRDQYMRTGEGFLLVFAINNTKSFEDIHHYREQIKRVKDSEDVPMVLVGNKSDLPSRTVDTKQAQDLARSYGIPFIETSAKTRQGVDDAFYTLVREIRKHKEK
test-protocol: SOS-catalyzed nucleotide exchange assay (TR-FRET)
Assay type: biochemical
condition-info: apparent potency; preincubation time of 60 minutes prior to addition of SOS
measurement-label: log10 of IC50 (log10 of the value in nM)
Transform log10 | Measure IC50 | Unit nM

Guide cases for log10 of IC50, answers given:
{"columns": ["molecule", "log10 of IC50"],
 "data": [
  ["C=CC(=O)N1CCN(c2nc(OC[C@@H]3CCCN3C)nc3c2CCC2(O3)c3ccccc3CCC2C)C[C@@H]1CC#N (single isomer, unassigned) [Example 10a]", 2.16],
  ["C=CC(=O)N1CCN(c2nc(OC[C@@H]3CCCN3C)nc3c2CCC2(CCCc4ccccc42)O3)C[C@@H]1CC#N (single isomer, unassigned) [Example 2a]", 1.14],
  ["C=CC(=O)N1CCN(c2nc(OC[C@@H]3CCCN3C)nc3c2CCC2(CCC(C)c4ccccc42)O3)C[C@@H]1CC#N (single isomer, unassigned) [Example 9b]", 1.53],
  ["C=CC(=O)N1CCN(c2nc(N3CC(N(C)C)C3)nc3c2CCC2(CCCc4ccccc42)O3)C[C@@H]1CC#N (single isomer, unassigned) [Example 20a]", 1.62],
  ["C=CC(=O)N1CCN(c2nc(OC[C@@H]3CCCN3C)nc3c2CCC2(CCC(C)(C)c4ccccc42)O3)C[C@@H]1CC#N (single isomer, unassigned) [Example 6a]", 2.26],
  ["C=CC(=O)N1CCN(c2nc(OC[C@@H]3CCCN3C)nc3c2CCC2(O3)c3ccccc3CCC2C)C[C@@H]1CC#N (single isomer, unassigned) [Example 10b]", 1.70]
]}

Supply recorded log10 of IC50 for C=CC(=O)N1CCN(c2nc(OC[C@@H]3CCCN3C)nc3c2CCC2(CCc4c2ccc2[nH]ncc42)O3)C[C@@H]1CC#N (single isomer, unassigned) [Example 28a] here.
3.89

Supply recorded log10 of IC50 for C=CC(=O)N1CCN(c2nc(OC[C@@H]3CCCN3C)nc3c2CCC2(CCc4ccccc42)O3)C[C@@H]1CC#N (single isomer, unassigned) [Example 4a] here.
1.17

Supply recorded log10 of IC50 for C=CC(=O)N1CCN(c2nc(OCC[C@@H]3CCCN3C)nc3c2CCC2(CCCc4ccccc42)O3)C[C@@H]1CC#N (single isomer, unassigned) [Example 5a] here.
1.27

Supply recorded log10 of IC50 for C=C(F)C(=O)N1CCN(c2nc(OC[C@@H]3CCCN3C)nc3c2CCC2(CCCc4ccccc42)O3)C[C@@H]1CC#N (single isomer, unassigned) [Example 17a] here.
2.92

Supply recorded log10 of IC50 for C=CC(=O)N1CCN(c2nc(OC[C@@H]3CCCN3C)nc3c2CCC2(CCCc4c(C)cc(C)cc42)O3)C[C@@H]1CC#N (single isomer, unassigned) [Example 11b] here.
2.82

###

Attribute: IC50
study-target: recombinant biotinylated KRAS protein containing G12C/C51S/C80L/C118S mutations (Biotinylated KRAS G12C protein) (Homo sapiens (Human), UniProt P01116, C118S/C51S/C80L/G12C)
test-protocol: SOS-catalyzed nucleotide exchange assay (TR-FRET)
Format: biochemical
condition-info: apparent potency; preincubation time of 60 minutes prior to addition of SOS
Express the result in nM but write the number alone.

Guide cases for IC50, answers given:
{"columns": ["molecule", "reported"],
 "data": [
  ["C=CC(=O)N1CCN(c2nc(OC[C@@H]3CCCN3C)nc3c2CCC2(CCCc4ccccc42)O3)C[C@@H]1CC#N (single isomer, unassigned) [Example 2b]", 14.7],
  ["C=CC(=O)N1CCN(c2nc(OCC3(CN(C)C)CC3)nc3c2CCC2(CCCc4ccccc42)O3)C[C@@H]1CC#N (single isomer, unassigned) [Example 12a]", 99.7],
  ["C=CC(=O)N1CCN(c2nc(OC[C@@H]3CCCN3C)nc3c2CCC2(CCCc4cccc(C)c42)O3)C[C@@H]1CC#N (single isomer, unassigned) [Example 1a]", 6.37],
  ["C=CC(=O)N1CCN(c2nc(OC[C@@H]3CCCN3C)nc3c2CCC2(CCCc4c(F)cccc42)O3)C[C@@H]1CC#N (single isomer, unassigned) [Example 3b]", 51],
  ["C=CC(=O)N1CCN(c2nc(OC[C@@H]3CCCN3C)nc3c2CCC2(O3)c3ccccc3CC2(C)C)C[C@@H]1CC#N (single isomer, unassigned) [Example 27b]", 4490],
  ["C=CC(=O)N1CCN(c2nc(OC[C@@H]3CCCN3C)nc3c2CCC2(CCCc4ccccc42)O3)C[C@H]1C (some centres unmarked) [Example 14a]", 2080]
]}

Supply recorded IC50 for C=CC(=O)N1CCN(c2nc(OC[C@@H]3CCCN3C)nc3c2CCC2(CC(C)c4ccccc42)O3)C[C@@H]1CC#N (single isomer, unassigned) [Example 25c] here.
253

Supply recorded IC50 for C=CC(=O)N1CCN(c2nc(OC[C@@H]3CCCN3C)nc3c2CCC2(CCC(C)c4ccccc42)O3)C[C@@H]1CC#N (single isomer, unassigned) [Example 9c] here.
110
